Assay: Intrinsic clearance in human liver microsomes at 0.1 uM by LC-MS/MS analysis
Type: ADME, Microsome
Details: read-out: CLH
We use 1 L/h/kg as the dividing line for CLint scaled at 0.1 µM: on or above the line is Fulfilled, below is Not fulfilled.

| molecule | category |
| --- | --- |
| C[C@@H]1CN(Cc2ccccc2)C[C@H]1c1nc2c(cnn2C2CCOCC2)c(=O)[nH]1 | Fulfilled |

Would you kindly look at the next entry?
Please check the record Cc1ccc(CN2C[C@@H](C)[C@H](c3nc4c(cnn4C4CCOCC4)c(=O)[nH]3)C2)cn1 and state if its CLint scaled at 0.1 µM is at or above 1 L/h/kg.
Fulfilled
